System: RXF 393 renal
Assay: NCI-60 one-dose screen, 48 h
Conditions: 10 µM unless noted
The panel holds about 83,000 compounds, 20% with a hit somewhere; the sample as a whole holds those more often. Active and inactive are the calls of the source. How the source made its calls: active means growth percent below 10; inactive means the rest.
Classes used: active, inactive

- compound: "COc1cc(C=O)ccc1OC1OC(COC(C)=O)C(OC(C)=O)C(OC(C)=O)C1OC(C)=O (stereo not drawn)"
  group-label: "inactive"
- compound: "O=C(Nc1ccc(F)cc1)Nc1ccc(NC(=O)c2cc(Cl)nc3ccccc23)cc1"
  group-label: "inactive"
- compound: "COc1cc(C2=NN(C(C)=O)C(c3cc(OC)c(OC)c(OC)c3)C2)ccc1O (stereo not drawn)"
  group-label: "active"
- compound: "COc1ccc(C(=O)c2cc(OC)c(OC)c(OC)c2)cc1O"
  group-label: "active"
- compound: "C=C(C)[C@@H]1CC[C@]2(CN)CC[C@]3(C)[C@H](CC[C@@H]4[C@@]5(C)CCCNC(C)(C)[C@@H]5CC[C@]43C)[C@@H]12"
  group-label: "active"
- compound: "CC[C@]12C=CCN3CC[C@@]4(c5cc(NC(=O)CCC(=O)O[C@H]6CC[C@H]7[C@@H]8CCC9=CC(=O)CC[C@@H]9[C@H]8CC[C@]67C)c(OC)cc5N(C)[C@H]4[C@@](O)(C(=O)OC)[C@@H]1OC(C)=O)[C@@H]32"
  group-label: "inactive"
- compound: "Cc1ccc(-n2c3c(c(-c4ccccc4)c2-c2ccccc2)C2=NCCN2C=N3)cc1"
  group-label: "inactive"
- compound: "COc1ccc(-c2nc3sccn3c2/C=C/C(=O)c2ccc3c(c2)OCO3)cc1"
  group-label: "inactive"
- compound: "COc1cccc2c1c1nc3cc(C)c(C)cc3nc1n2CCN(C)C"
  group-label: "inactive"
- compound: "Nc1c(C(=O)Nc2ccnc3ccccc23)sc2nc3c(cc12)CN(Cc1ccccc1)CC3"
  group-label: "inactive"
- compound: "Cc1ccccc1NS(=O)(=O)c1cccc(C(=O)Nc2ccc(Br)cc2)c1"
  group-label: "inactive"
- compound: "CC(C)(C)c1cc(C=O)cc(C(C)(C)C)c1O"
  group-label: "inactive"
- compound: "O=C(Nc1ccc(NC(=O)c2cc(=O)[nH]c3ccccc23)cc1)Nc1cccc(Cl)c1"
  group-label: "inactive"
- compound: "C=C1C(=O)O[C@H]2[C@H]1CC/C(CNC(=O)C(C)c1ccc(CC(C)C)cc1)=C\\CC[C@@]1(C)O[C@@H]21 (stereo partly drawn)"
  group-label: "active"
- compound: "CC1(C)CC(=O)C2=C(C1)N(c1ccc(F)cc1F)C(N)=C(C#N)C2c1cc(Br)ccc1F (stereo not drawn)"
  group-label: "inactive"
- compound: "COc1ccc(C(=O)CSc2nc(-c3cc(OC)ccc3OC)cc(-c3ccc(Cl)cc3)c2C#N)cc1"
  group-label: "inactive"
- compound: "Fc1ccc2c(-c3cncn3CCc3ccccc3)c[nH]c2c1"
  group-label: "inactive"
- compound: "c1ccc(-c2c(-c3ccccc3)[n+](Cc3ccc4ccccc4c3)c(-c3cccc4ccccc34)n2Cc2ccc3ccccc3c2)cc1"
  group-label: "active"

----------
Tested on: SF-295 CNS
Test: NCI-60 one-dose screen, 48 h
Settings: 10 µM unless noted
The panel holds about 83,000 compounds, 20% with a hit somewhere; the sample as a whole holds those more often. Active and inactive are the calls of the source. How the source made its calls: active means growth percent below 10; inactive means the rest.
Classes used: active, inactive

- compound: "C#Cc1cccc(NC(=O)Nc2cccc(NC(=O)CCl)c2)c1"
  group-label: "inactive"
- compound: "O=C(NO)c1ccc(-n2nc(-c3ccccc3)c3ccccc32)cc1"
  group-label: "inactive"
- compound: "Cc1cc(C)c(S(=O)(=O)Oc2ccccc2[N+](=O)[O-])c(C)c1"
  group-label: "active"
- compound: "CCCCCCNC(=O)Oc1ccc(/C(=C(\\C)c2ccccc2)c2ccc(OCCCN(C)C)cc2)cc1"
  group-label: "inactive"
- compound: "COc1ccccc1/C(C)=N/NC(=O)CSc1nc2ccccc2c(=O)n1Cc1ccc(S(N)(=O)=O)cc1"
  group-label: "inactive"
- compound: "CCCCCN1C=C/C(=C\\C(=O)N(C)c2ccccc2Br)c2ccccc21"
  group-label: "inactive"
- compound: "CC(=O)O[C@H]1Cc2c([nH]c3ccccc23)[C@@H](c2ccc(Cl)cc2)N1C(=O)CCNC(C)(C)C"
  group-label: "inactive"
- compound: "CNC(=O)c1cccc(Cn2nc(C)c(NC(=O)c3ccc(COc4ccc(C(F)(F)F)cc4C)cc3)c2C)n1"
  group-label: "inactive"
- compound: "COc1cc(C2C3=C(COC3=O)N(CCO)c3cc4c(cc32)CCC4)cc(OC)c1OC (centres undefined)"
  group-label: "active"
- compound: "CCOC(=O)c1cc(C(=O)c2ccc(OC)c(OC)c2)n2ccc(/C=C/c3cc[n+](CC(=O)c4ccc(OC)c(OC)c4)cc3)cc12"
  group-label: "inactive"
- compound: "c1ccc(-c2cn3c(ccc4ccccc43)n2)cc1"
  group-label: "inactive"
- compound: "CC(C)(C)c1ccc(NS(=O)(=O)c2ccc3nc(NC(=O)c4cnccn4)[nH]c3c2)cc1"
  group-label: "inactive"
- compound: "COc1cc2cc(CN3CCN(c4nccc(-c5ccc6ccccc6c5)n4)CC3)c(=O)[nH]c2cc1OC"
  group-label: "inactive"
- compound: "NC(=NCc1ccccc1)C(N=Nc1ccccc1)C(=O)NCc1ccccc1 (centres undefined)"
  group-label: "inactive"
- compound: "CCN(c1ccccc1)S(=O)(=O)c1cc([N+](=O)[O-])ccc1Cl"
  group-label: "inactive"
- compound: "NS(=O)(=O)c1ccc(CCn2c(SCC(=O)c3ccc(Cl)cc3)nc3ccccc3c2=O)cc1"
  group-label: "inactive"
- compound: "Oc1c(Cl)cc(Cl)c(Cl)c1CNCCNCc1c(O)c(Cl)cc(Cl)c1Cl"
  group-label: "inactive"
- compound: "CCN(CC)c1ccc(C(=O)c2ccccc2)cc1"
  group-label: "inactive"
- compound: "C=C1C(=O)O[C@H]2[C@H]1CC/C(COC(=O)NCc1c[nH]c3ccc(Cl)cc13)=C\\CC[C@@]1(C)O[C@@H]21"
  group-label: "inactive"
